assay: qHTS for inhibitors of Vif-A3G interactions: Cherry picks; details: HeLa A3G-eYFP + Vif, 24 h; eYFP fluorescence increase; series mostly up to 36.9 µM; further: nearly all actives have a fitted effect of over 80% in size; further: potency means the concentration at half of the fitted maximal effect
The campaign covered roughly 2,100 compounds. About 650 (31%) were called active. Inconclusive results (about 16%) are left out. Some of the results follow.
metric_name: Potency

In the examples that follow, each entry is paired with its recorded Potency.
> print(dat)
                                   compound  metric.name      assay.result
1  CCC1=Nc2cc(C(=O)NCc3cccnc3)ccc2Sc2ccc(C)cc21      Potency          inactive
2  CC(=O)Nc1ccc(S(=O)(=O)Nc2nc3ccccc3nc2Nc2ccc3ccccc3c2)cc1      Potency          inactive
3  CCN(CC)C(=O)c1ccc(/C=C/c2c[nH]c3ccccc23)[n+](C)c1      Potency  18.4 µM (active)
4  CNCC(O)Cn1c2c(c3ccccc31)CCCC2 (stereo not given)      Potency          inactive
5  COc1ccc(C(=O)/C=C2/c3ccccc3CC(C)(C)N2C)cc1      Potency          inactive

Please go through the list and note Potency for each compound.
1. C[n+]1cc(C(=O)N2CCCCC2)ccc1/C=C/c1c[nH]c2ccccc12
2. Cc1cc(C)c[n+](-c2nc3ccccc3nc2[N-]S(=O)(=O)c2ccc(Br)s2)c1
3. COc1ccc(COn2c(=O)c(C)[n+]([O-])c3ccccc32)cc1OC

["14 µM (active)", "18.4 µM (active)", "inactive"]

Please go through the list and note Potency for each compound.
1. COc1ccc(/C=C2\C(=O)NC(=S)N2C(=O)c2ccc(F)cc2)cc1
2. Cc1ccc(N=Cc2c(O)n(-c3nccs3)c(=O)c3ccccc23)c(C)c1

["8.2 µM (active)", "16.4 µM (active)"]

----------
assay: qHTS for inhibitors of Vif-A3G interactions: Cherry picks; settings: HeLa A3G-eYFP + Vif, 24 h; eYFP fluorescence increase; series mostly up to 36.9 µM; further: nearly all actives have a fitted effect of over 80% in size; further: potency means the concentration at half of the fitted maximal effect
The whole screen tested about 2,100 compounds, of which about 650 (31%) were called active. Another 16% or so got no clear call; they are omitted. Some of the results follow.
metric_name: Potency

In the examples that follow, each entry is paired with its recorded Potency.
> print(dat)
                                   compound  metric.name       assay.result
1  CCN(CC)c1ccc2cc(-c3nc(-c4cccs4)no3)c(=O)oc2c1      Potency   2.91 µM (active)
2    O=C(N/N=C/c1cccc2ccccc12)c1cc2ccccc2o1      Potency           inactive
3  CCN(CC)c1ccc2cc(-c3nc4sc5c(c4c(=O)[nH]3)CCC(C(C)(C)C)C5)c(=O)oc2c1 (stereo not given)      Potency           inactive
4  COc1cc(/C=C(\C#N)c2nc3ccccc3s2)ccc1OCC(=O)Nc1ccccc1      Potency   17.7 µM (active)
5  N#C/C(=C\c1ccc(-c2ccc(C(=O)O)cc2)o1)c1nc2ccccc2[nH]1      Potency   4.61 µM (active)
6  CCN(CC)c1ccc2cc(-c3nnc(-c4ccccc4)o3)c(=O)oc2c1      Potency  0.627 µM (active)
7  Cc1ccc(/C=N/NC(=O)c2nc3nc(C)cc(C)n3n2)cc1      Potency           inactive
8  CCN(CC)c1ccc2cc(-c3nc(-c4ccc(Cl)cc4Cl)cs3)c(=O)oc2c1      Potency   2.91 µM (active)
9  Cc1ccc([N+](=O)[O-])cc1-c1ccc(/C=C(\C#N)c2[nH]nc(N)c2C#N)o1      Potency           inactive

The record that follows has no Potency shown yet.
For the compound O=C(Oc1ccc(Cl)c2cccnc12)c1ccco1 , what Potency is on record?
inactive

----------
Experiment: qHTS for inhibitors of Vif-A3G interactions: Cherry picks; further: nearly all actives have a fitted effect of over 80% in size
Settings: HeLa A3G-eYFP + Vif, 24 h; eYFP fluorescence increase; series mostly up to 36.9 µM
Excerpt: The recent discovery and characterization of host restriction factors, which provide a potent defense to invading retroviruses, has provided new targets for antiviral drug development. […] In the presence of an inhibitor, it is expected that Vif will be unable to degrade A3G-eYFP and/or A3F-eYFP, resulting in an increase in yellow fluorescence. […]
In all, about 2,100 compounds went through this assay and about 650 (31%) were called active. Roughly 16% stayed inconclusive and do not appear here. Calls come from the whole dose curve; as a rule, active = well fitted inhibition curve with a large enough effect; inconclusive = small, poorly fitted or top-dose-only effect; inactive = flat fitted curve, though single readings scatter. The list shows a part of the results.
Choose the fitting class; nothing outside T for active, F for inactive is accepted.

> print(dat)
                                   compound  class.assignment
1  CC(=O)Nc1cc(-c2ccccc2CN(C)C)cn2c(-c3ccc(C(C)=O)cc3)cnc12                 F

Dear colleague, could you share the recorded outcome for CCCC1=[N+](CC(=O)c2ccc(Br)cc2)CCn2cccc21 when you have a moment?
F

Dear colleague, could you share the recorded outcome for O=C1c2cccc3c([N+](=O)[O-])ccc(c23)C(=O)N1c1ccccn1 when you have a moment?
T

Dear colleague, could you share the recorded outcome for Cc1nnc(N2C(=O)c3cccc4c([N+](=O)[O-])ccc(c34)C2=O)s1 when you have a moment?
T

Dear colleague, could you share the recorded outcome for CC(=O)Oc1ccc(N2C(=O)c3cccc4c([N+](=O)[O-])ccc(c34)C2=O)cc1 when you have a moment?
T

Dear colleague, could you share the recorded outcome for CCS(=O)(=O)C1=NN2C(=N)/C(=C\c3ccc(SCc4ccco4)o3)C(=O)N=C2S1 when you have a moment?
F

----------
assay: qHTS for inhibitors of Vif-A3G interactions: Cherry picks; details: HeLa A3G-eYFP + Vif, 24 h; eYFP fluorescence increase; series mostly up to 36.9 µM; further: nearly all actives have a fitted effect of over 80% in size
Among all 2,100 compounds or so, about 650 (31%) were called active. Another 16% or so got no clear call; they are omitted. Calls come from the whole dose curve; as a rule, active = well fitted inhibition curve with a large enough effect; inconclusive = small, poorly fitted or top-dose-only effect; inactive = flat fitted curve, though single readings scatter. Some of the results follow.
Choose the fitting class; nothing outside Yes (active), No (inactive) is accepted.

Known results for compounds:
> print(dat)
                                   compound  class.assignment
1             CN(C)C=Nc1c(Br)cc(Br)c2nonc12               Yes
2  O=C(NC12CC3CC(CC(C3)C1)C2)c1ccc([N+](=O)[O-])o1                No
3     CCOC(=O)c1ccc(NC(=S)NC(=O)C2CCCC2)cc1                No
4  COC(=O)c1ccc(NC(=O)CC2Nc3cc(C)c(C)cc3NC2=O)cc1 (stereo not given)               Yes
5  COc1ccc(NC(=O)C2Cc3c(-c4ccc(NC(C)=O)cc4)ccnc3O2)cn1 (stereo not given)                No
6  O=C(c1cc(-c2ccncc2)nc2ccccc12)N1CCN(c2ccccn2)CC1                No
7  C=CCN1C(=O)c2ccc(C(=O)N(CC(C)C)c3c(N)n(CCCC)c(=O)[nH]c3=O)cc2C1=O                No
8       Cc1cccc(N2CCN(C(=O)c3ccncc3)CC2)c1C                No
9  CCOc1ccc(N(C)c2ccc(/C=C3/SC(=S)NC3=O)cc2)cc1               Yes

Now turn to the next compound.
Dear colleague, could you share the recorded outcome for CC(C)C1C(=O)N(Cc2cn(CCC3OCCCO3)nn2)CCS(=O)(=O)N1Cc1ccc(-c2cccc(CO)c2)cc1 (stereo not given) when you have a moment?
No

----------
experiment: qHTS for inhibitors of Vif-A3G interactions: Cherry picks; conditions: HeLa A3G-eYFP + Vif (tagged APOBEC3G with the HIV-1 protein that degrades it), 24 h; eYFP fluorescence increase; series mostly up to 36.9 µM; further: nearly all actives have a fitted effect of over 80% in size
Hit rate of the full screen: of about 2,100 compounds, about 650 (31%) were called active. Another 16% or so got no clear call; they are omitted. The call rests on the fitted dose curve; in most records, active means well fitted inhibition curve with a large enough effect; inconclusive means small, poorly fitted or top-dose-only effect; inactive means flat fitted curve, though single readings scatter. This is one part of the list.
Choose the fitting class; nothing outside active, inactive is accepted.

> print(dat)
                                   molecule  class.assignment
1  Nc1[nH]c2cc([N+](=O)[O-])ccc2c1-c1ccccn1            active
2  CSC1=NC(C(Cl)(Cl)Cl)N=C(c2ccccc2)N1 (configuration not stated)          inactive
3  Cc1ccc(S(=O)(=O)N2CCN(C(=O)CSC(=S)N3CCCC3)CC2)c(C)c1          inactive
4             O=[N+]([O-])c1cc(O)c2ncccc2c1          inactive
5        CN(C)c1ccc(/C=C2\Cc3ccccc3C2=O)cc1            active

Dear colleague, could you share the recorded outcome for C=CCn1c(SCc2c(C)noc2C)nc2cc(C(=O)O)ccc2c1=O when you have a moment?
inactive

Dear colleague, could you share the recorded outcome for Cc1cc2c(cc(C(=O)OCC(=O)NCc3cccs3)n2C(C)C)o1 when you have a moment?
inactive

Dear colleague, could you share the recorded outcome for c1ccc(-c2cccc(-c3ccccn3)n2)nc1 when you have a moment?
inactive

Dear colleague, could you share the recorded outcome for Cc1ccc(O)c(Nc2c3ccccc3nc3ccccc23)c1 when you have a moment?
inactive

Dear colleague, could you share the recorded outcome for CC1CC(C)(C)Nc2ccc(OC(=O)c3ccco3)cc21 (configuration not stated) when you have a moment?
active

Dear colleague, could you share the recorded outcome for CSc1nsc(/C=C/Nc2ccc(F)cc2)c1C#N when you have a moment?
inactive

Dear colleague, could you share the recorded outcome for Cc1nc(CSc2nsc(/C=C/N(C)C)c2C#N)cs1 when you have a moment?
inactive
